Data credit: ChEMBL document CHEMBL1122242

Species: Rattus norvegicus
Test: Hypolipidemic effects(liver weight) in male rats
Assay type: functional

{"columns": ["compound", "Change (%)"],
 "data": [
  ["CC(C)(CCOc1cccc(OCCC(C)(C)C(=O)O)c1)C(=O)O", 17],
  ["COC(=O)C(C)(C)CCCOc1ccc(-c2ccccc2)c(OCCCC(C)(C)C(=O)OC)c1", 6],
  ["CCCCCCCCCCCCc1ccc(OCCCC(C)(C)C(=O)O)cc1OCCCC(C)(C)C(=O)O", 0],
  ["COC(=O)C(C)(C)CCCOc1cc(C(C)(C)C)c(OCCCC(C)(C)C(=O)OC)cc1C(C)(C)C", 0],
  ["COC(=O)C(C)(C)CCCOc1ccc(Br)c(OCCCC(C)(C)C(=O)OC)c1", 5]
]}
